Please respond with reported normalized growth for every item in the list.
Experiment: chemical genetic growth profiling, strain panel (AID 1159580);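 also: tested at 20 µM; growth read once vehicle control cultures reached saturation at 30 °C; 1 = growth at the plate median or of vehicle wells; lower values mean less growth of the strain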
Details: S. cerevisiae deletion strains, growth OD, locus YDL101C, strain DUN1, stronger effect = lower value
Screen size: about 5,500 compounds; about 2,000 (36%) were called active. Not shown: some 18% with an inconclusive outcome. The list shows a part of the results. Where a SMILES comes first, the peptide text is derived from it. Bridges are numbered along the chain shown (N, C = ends). [ ]: non-standard residue; d: D form. The star is where a group is joined. Octanoyl(6-Me) = CCC(C)CCCCC(=O)*; Dab = NCC[CH](N)C(=O)O
Answers are plain numbers.

>  <Compound>
S=C(Nc1ccc(Cl)cc1)Nc1ccc(Cl)cc1

>  <normalized growth>
0.96

$$$$
>  <Compound>
N#C/C(=N/Nc1cccc(C(F)(F)F)c1)C(=O)c1csc(-c2cccnc2)n1

>  <normalized growth>
0.964

$$$$
>  <Compound>
Cc1ccc(=O)n(Cc2ccc(Cl)c(Cl)c2)n1

>  <normalized growth>
0.958

$$$$
>  <Compound>
O=C(NNC(=S)Nc1ccc(Cl)cc1)c1ncc(C(F)(F)F)cc1Cl

>  <normalized growth>
0.985

$$$$
>  <Compound>
CCC(C)CCCCC(=O)NC(CCN)C(=O)NC(C(=O)NC(CCN)C(=O)NC1CCNC(=O)C(C(C)O)NC(=O)C(CCN)NC(=O)C(CCN)NC(=O)C(CC(C)C)NC(=O)C(Cc2ccccc2)NC(=O)C(CCN)NC1=O)C(C)O (stereo not drawn) ({Octanoyl(6-Me)}-[Dab]T[Dab][Dab][Dab]FL[Dab][Dab]T; lactam 4-C; configuration not given here)

>  <normalized growth>
1.02

$$$$
>  <Compound>
O=C1CCCN1c1ccc(Cl)c(Cl)c1

>  <normalized growth>
0.939

$$$$
>  <Compound>
CS/C(Nc1cccc(C(F)(F)F)c1)=C(/C#N)S(=O)(=O)c1ccc(Cl)cc1

>  <normalized growth>
0.953

$$$$

Inquiry: Form field: reported normalized growth of CO[C@@]1(NC(=O)Cc2cccs2)C(=O)N2C(C(=O)O)=C(COC(N)=O)CS[C@@H]21
Reply text: 1.01

Source: PubChem BioAssay AID1159580
